Experiment: SDT Cancer Cell Toxicity qHTS against the NCATS CANVASS Library (AID 1347365); note: nearly all actives have a fitted effect of over 60% in size
Conditions: SDT dog glioma viability, ATP luminescence, 72 h; series mostly up to 46.1 µM
Records with an inconclusive call do not appear. The source made the active and inactive calls. Calls come from the whole dose curve; as a rule, active = well fitted cell-killing curve with a large enough effect; inconclusive = small, poorly fitted or top-dose-only effect; inactive = flat fitted curve, though single readings scatter. Peptide text beside a SMILES is read from it. * marks the point of attachment. Hexanoyl = CCCCCC(=O)*
Outcomes: active, inactive

- compound: "C=CC(C)(C)C(=O)[C@@H](C)[C@@H]1CC[C@@](C)(C=C)O1"
  group: "inactive"
- compound: "C=C1CC[C@@H](Br)C(C)(C)[C@]12CC=C(C)C(=O)C2"
  group: "inactive"
- compound: "O[C@H]1c2ccccc2-c2c3c(cc4c2[C@@H]1NCC4)OCO3"
  group: "active"
- compound: "Cc1cc(C)c(O)c(C(=O)CC2CC(=O)NC(=O)C2)c1"
  group: "active"
- compound: "C/C=C/C(=O)C1(O)CC2CC(C(=O)O)CC(C)C2C1C1=C2C(=O)NC(=O)C2=C(CCCCC)C(C)O1 (stereo not given)"
  group: "active"
- compound: "CC(=O)c1c(C)cc2c(c1O)C(=O)c1c(O)cc(O)cc1C2=O"
  group: "inactive"
- compound: "C=C1C(=O)O[C@H]2[C@H]1CCC(C)=C1CC[C@@](C)(O)[C@@H]12"
  group: "active"
- compound: "O=C1CC2OCC=C3CN4C5CC3C2[C@@H]2N1c1ccccc1[C@]52C[C@@H]4C1=C[C@H]2C3CC4N(CC[C@@]45c4ccccc4N(C1=O)[C@@H]25)C/C3=C/CO (stereo not given in full)"
  group: "active"
- compound: "C=C1C[C@H]2O[C@@H]3[C@@H]4[C@H](CC[C@@](C)(O)[C@@H]42)[C@H](C)COC3(C)[C@@H](OC(=O)CCCCCCC)CC1=O (stereo not given in full)"
  group: "active"
- compound: "C=C1CC[C@@H](O[C@H]2C[C@@](O)([C@H](C)NC(=O)c3[nH]c(C)c(Cl)c3Cl)[C@H](O)[C@@H](C)O2)[C@@H]2C=C[C@H](C)C(/C(O)=C3/C(=O)[C@H](C(C)C)N([C@@H]4O[C@H](C)[C@H](OC(N)=O)[C@H](OC(C)=O)[C@@H]4OC)C3=O)[C@@H]12 (stereo not given in full)"
  group: "inactive"
- compound: "CCCCCC(=O)N[C@@H](CC(C)C)C(=O)N[C@H](C=O)CCC(=O)O (Hexanoyl-Leu-Glu-aldehyde)"
  group: "inactive"
- compound: "C/C1=C/[C@@H](C)[C@H](O)[C@@H](O)/C=C/CC/C=C/C(=O)O[C@@H]1[C@H](C)C(=O)/C=C/CC1CC(=O)NC(=O)C1"
  group: "active"
- compound: "O=Cc1ccc2n1C[C@]1(OC2)O[C@H](CO)[C@@H](O)[C@@H]1O"
  group: "inactive"
- compound: "C=CC(CCCCC)C1C(=O)NC(=O)C1C(=O)C1C(/C=C/C)C=CC2CC(C(=O)O)CC(C)C21 (stereo not given)"
  group: "inactive"
- compound: "O=C1CC(c2ccc(O)cc2)Oc2cc(O)cc(O)c21 (stereo not given)"
  group: "inactive"

---

Target: Dual specificity protein kinase CLK4 (Homo sapiens) (UniProt Q9HAZ1)
Sequence (Q9HAZ1 whole entry, looked up): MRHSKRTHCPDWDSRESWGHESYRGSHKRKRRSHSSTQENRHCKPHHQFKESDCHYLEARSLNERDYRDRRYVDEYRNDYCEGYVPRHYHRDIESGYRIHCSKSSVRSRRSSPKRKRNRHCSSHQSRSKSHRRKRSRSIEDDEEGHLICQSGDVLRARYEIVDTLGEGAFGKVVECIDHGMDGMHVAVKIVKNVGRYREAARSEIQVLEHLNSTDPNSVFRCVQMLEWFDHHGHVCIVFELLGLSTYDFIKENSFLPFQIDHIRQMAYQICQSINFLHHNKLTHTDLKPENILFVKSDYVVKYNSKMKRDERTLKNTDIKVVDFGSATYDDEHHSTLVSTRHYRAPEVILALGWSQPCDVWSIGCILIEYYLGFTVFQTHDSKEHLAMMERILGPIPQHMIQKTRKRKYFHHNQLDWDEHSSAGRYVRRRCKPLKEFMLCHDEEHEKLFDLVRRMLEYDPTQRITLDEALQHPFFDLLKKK
Assay: qHTS Assay for Inhibitors of CDC-like Kinase 4 (Kinase-Glo Assay) (AID 1770); note: nearly all actives have a fitted effect of over 65% in size
Conditions: recombinant Clk4, Kinase-Glo ATP depletion luminescence; series mostly up to 66.7 µM
Results filed as inconclusive are left out. Active and inactive are the calls of the source. Calls come from the whole dose curve; as a rule, active = well fitted inhibition curve with a large enough effect; inconclusive = small, poorly fitted or top-dose-only effect; inactive = flat fitted curve, though single readings scatter.
Outcomes: y = active, n = inactive

- line_notation: "CC(=O)NCCNc1ncnc2ccc(-c3ccoc3)cc12"
  group: "y"
- line_notation: "COc1ccc(-n2c(=O)c(-c3cccs3)nc3cnc(N(C)C)nc32)cc1"
  group: "n"
- line_notation: "COc1cccc(-c2cncnc2N(C)Cc2ccco2)c1"
  group: "n"
- line_notation: "COc1cccc(Cn2c(=O)c(C)nc3cnc(N4CCN(C)CC4)nc32)c1"
  group: "n"
- line_notation: "CC(=O)NCCNc1cc(-c2ccccc2C(F)(F)F)ncn1"
  group: "n"
- line_notation: "FC(F)(F)c1ccccc1-c1cc(NCc2ccccc2)ncn1"
  group: "n"
- line_notation: "Cn1cc(-c2nc3cnc(N4CCOCC4)nc3n(C3CC3)c2=O)c2ccccc21"
  group: "n"
- line_notation: "Clc1ccccc1-c1ccc2ncnc(NCc3cccnc3)c2c1"
  group: "y"
- line_notation: "CN(C)c1ncc2nc(-c3ccc(F)cc3)c(=O)n(Cc3ccc(F)cc3)c2n1"
  group: "n"
- line_notation: "CN(C)Cc1ccccc1-c1cncnc1Nc1ccccc1"
  group: "n"
- line_notation: "COc1ccc(-n2c(=O)c(-c3ccccc3)nc3cnc(N4CCNCC4)nc32)cc1"
  group: "n"
- line_notation: "COCCn1c(=O)c(-c2cccc(C#N)c2)nc2cnc(Oc3ccccc3)nc21"
  group: "n"
- line_notation: "Cc1noc(C)c1-c1cncnc1NCc1cccnc1"
  group: "n"
- line_notation: "O=c1cnc2cncnc2n1Cc1ccccc1"
  group: "n"
- line_notation: "COc1cccc(-c2ccc3ncnc(NCc4cccnc4)c3c2)c1"
  group: "y"
- line_notation: "CCNc1ncc2nc(C)c(=O)n(CCC#N)c2n1"
  group: "n"
- line_notation: "COc1ccc(CNc2ncnc3ccc(-c4cccnc4)cc23)c(OC)c1"
  group: "y"
- line_notation: "COc1ccc(-c2nc3cnc(N4CCN(C)CC4)nc3n(Cc3cccc(OC)c3)c2=O)cc1"
  group: "n"
- line_notation: "CC(=O)NCCNc1ncncc1-c1ccccc1C"
  group: "n"
- line_notation: "CN(C)c1ncc2nc(-c3cccc(C#N)c3)c(=O)n(CCC#N)c2n1"
  group: "n"
- line_notation: "COc1ccc(-c2nc3cnc(N4CCOCC4)nc3n(C3CC3)c2=O)cc1"
  group: "n"
- line_notation: "O=c1c(-c2ccccc2)nc2cnc(N3CCNCC3)nc2n1-c1ccccc1"
  group: "n"
- line_notation: "Cc1noc(C)c1-c1cc(N2CCNCC2)ncn1"
  group: "n"
- line_notation: "O=c1c(-c2cc(F)cc(F)c2)nc2cnc(N3CCOCC3)nc2n1Cc1cccs1"
  group: "n"
- line_notation: "O=c1c(-c2ccc(F)cc2)nc2cnc(N3CCOCC3)nc2n1Cc1cccs1"
  group: "n"
- line_notation: "CN1CCN(c2ncncc2-c2ccccc2C(F)(F)F)CC1"
  group: "n"
- line_notation: "CN(C)c1ncc2nc(-c3cn(C)c4ccccc34)c(=O)n(C[C@H]3CCCO3)c2n1"
  group: "n"
- line_notation: "COCCn1c(=O)c(C)nc2cnc(N3CCN(C)CC3)nc21"
  group: "n"
- line_notation: "CN1CCN(c2ncc3nc(CCc4ccccc4)c(=O)n(C4CC4)c3n2)CC1"
  group: "n"
